Molecular target: PTP1B (Homo sapiens, UniProt P18031)
Construct: purchased Enzo Life Sciences Inc
Assay: In vitro PTP1B inhibition assay (p-NPP substrate)
Format: biochemical
Method: PTP1B enzyme inhibition activity was assessed following a previously described protocol. […] It was followed by incubation at 37 °C for 30 min. After that, 10 μL of 10 M NaOH was added to quench the reaction. […] IC50 values were calculated using non-linear regression in GraphPad Prism 10 (GraphPad Software, Inc., San Diego, CA, USA), based on triplicate experiments.
measurement_label: IC50 (µM)
Give bare numbers, in µM.

QUERY: Query: IC50; subject: CC1(C)CC[C@]2(C(=O)O)CC[C@]3(C)C(=CC[C@@H]4[C@@]5(C)C[C@@H](O)[C@H](O)C(C)(C)[C@@H]5CC[C@]43C)[C@@H]2C1
RESULT: 1.28

* * *

molecular target: PTP1B (Homo sapiens); construct: purchased Enzo Life Sciences Inc; test: In vitro PTP1B inhibition assay (p-NPP substrate); assay type: biochemical; conditions: 50% PTP1B inhibitory effect; mean ± S.E.M. of triplicate experiments; six concentrations; read-out: IC50
measurement_label: IC50 (µM)
Answers are plain numbers, in µM.

• C[C@@H]1CC[C@]2(C(=O)O)CC[C@]3(C)C(=CCC4[C@@]5(C)C[C@@H](O)[C@H](O)[C@@](C)(CO)C5CC[C@]43C)C2[C@]1(C)O (stereo partly drawn) = 4.4

// next entry
QUERY: Query: IC50; subject: CC1(C)CC[C@]2(C(=O)O)CC[C@]3(C)C(=CCC4[C@@]5(C)C[C@@H](O)[C@H](OC(=O)/C=C\c6ccc(O)cc6)C(C)(C)C5CC[C@]43C)C2C1 (stereo partly drawn) [Compound 17, 3-O-(Z)-p-coumaroyl maslinic acid]
RESULT: 2.6

* * *

Biological target: PTP1B (Homo sapiens)
Construct: purchased Enzo Life Sciences Inc
Sequence (P18031 1-435): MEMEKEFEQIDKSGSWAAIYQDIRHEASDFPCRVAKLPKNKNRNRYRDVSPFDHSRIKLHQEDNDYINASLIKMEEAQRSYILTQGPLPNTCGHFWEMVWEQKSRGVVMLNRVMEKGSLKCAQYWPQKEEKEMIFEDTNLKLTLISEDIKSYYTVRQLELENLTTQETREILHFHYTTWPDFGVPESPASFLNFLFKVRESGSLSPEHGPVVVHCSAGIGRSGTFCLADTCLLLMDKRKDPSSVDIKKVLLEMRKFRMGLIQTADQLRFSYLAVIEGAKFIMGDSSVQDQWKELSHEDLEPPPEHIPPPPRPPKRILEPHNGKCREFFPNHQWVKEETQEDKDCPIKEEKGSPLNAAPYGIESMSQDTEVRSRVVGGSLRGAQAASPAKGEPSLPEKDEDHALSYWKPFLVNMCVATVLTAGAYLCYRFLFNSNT
Test: In vitro PTP1B inhibition assay (p-NPP substrate)
Type: biochemical
Conditions: 50% PTP1B inhibitory effect; mean ± S.E.M. of triplicate experiments; six concentrations; read-out: IC50
Labelling field: enter label 1 if recorded IC50 is less than 4 µM. Enter label 0 if it equals or exceeds that cut-off.

* C=C1C2CC[C@]3(C)C(CC=C4C5[C@](C(=O)O)(CC[C@@H](C)[C@@]5(C)O)CC[C@]43C)[C@@]2(C)C[C@@H](O)[C@@H]1O (stereo partly drawn) | label 0
* C=C(C)C1CCC2(C(=O)OC)CCC3(C(=O)O)C(CCC4C5(C)CCC(O)C(C)(CO)C5CCC43C)C12 (stereo not drawn) | label 0
* CC1(C)CC[C@]2(C(=O)O)CC[C@]3(C)C(=CC[C@@H]4[C@@]5(C)C[C@@H](O)[C@H](O)[C@@](C)(CO)[C@@H]5CC[C@]43C)[C@@H]2C1 | label 0
* C=C(C)[C@@H]1CC[C@]2(C(=O)OC)CC[C@]3(C(=O)O)C(CCC4[C@@]5(C)CC[C@H](O)C(C)(C)C5CC[C@]43C)C12 (stereo partly drawn) | label 0
* C=C(CO)C1CCC2(C(=O)OC)CCC3(C(=O)O)C(CCC4C5(C)CCC(O)C(C)(C)C5CCC43C)C12 (stereo not drawn) | label 0
* C=C1[C@@H](O)[C@H](O)C[C@]2(C)[C@H]3CC=C4[C@@H]5[C@@H](C)[C@H](C)CC[C@]5(C(=O)O)CC[C@@]4(C)[C@]3(C)CC[C@@H]12 | label 0
* CC1(C)CC[C@]2(C(=O)O)CC[C@]3(C)C(=CCC4[C@@]5(C)C[C@@H](O)[C@H](OC(=O)/C=C/c6ccc(O)cc6)C(C)(C)C5CC[C@]43C)C2C1 (stereo partly drawn) [Compound 16, 3-O-(E)-p-coumaroyl maslinic acid] | label 1
* CC1(C)CC[C@]2(CO)CC[C@]3(C)C(=CC[C@@H]4[C@@]5(C)CC[C@H](O)C(C)(C)[C@@H]5CC[C@]43C)[C@@H]2C1 | label 1

QUERY: Is the reported IC50 for C=C(C)[C@@H]1CC[C@]2(C(=O)O)CC[C@]3(C)[C@H](CC[C@@H]4[C@@]5(C)CC[C@H](O)C(C)(C)[C@@H]5CC[C@]43C)[C@@H]12 strictly below 4 µM?
RESULT: label 1

QUERY: Is the reported IC50 for C=C1[C@@H](O)[C@H](O)C[C@]2(C)[C@H]3[C@@H]4O[C@@H]4[C@]45OC(=O)[C@@]6(CC[C@@H](C)[C@H](C)[C@H]64)CC[C@@]5(C)[C@]3(C)CC[C@@H]12 strictly below 4 µM?
RESULT: label 0

QUERY: Is the reported IC50 for CC1(C)CCC23CCC4(C)C5(C)CCC6C(C)(C)C(O)C(O)CC6(C)C5CC(O)C4(OC2=O)C3C1 (stereo not drawn) strictly below 4 µM?
RESULT: label 0
